Please provide measured combination Emax for the entries that follow.
test system: LCLC-97TM1 (Non-Small Cell Lung Carcinoma); assay: combination Emax (second highest fraction inhibited in the dose matrix, 72 h); higher = more inhibition; extreme values may be limits of the assay
Give only the figure.

(Q) Given COc1cccc(OCCCN)c1-c1cc(Nc2cnc(C#N)cn2)n[nH]1 [Prexasertib] + Cc1cc2ncnn2cc1Nc1ncc2c(n1)n(C1CCOCC1)c(=O)n2C [AZD7648] (first compound max 1 µM, 7x7, partner max 10 µM) , state its recorded combination Emax.
(A) 0.938

(Q) Field request: combination Emax | item: CC(=O)Nc1cccc(-n2c(=O)n(C3CC3)c(=O)c3c(Nc4ccc(I)cc4F)n(C)c(=O)c(C)c32)c1 [Trametinib] + Cc1nc(-c2cn3c(n2)-c2ccc(-c4cnn(C(C)(C)C(N)=O)c4)cc2OCC3)n(C(C)C)n1 [Taselisib] (first compound max 1 µM, 7x7, partner max 10 µM)
(A) 1

(Q) Field request: combination Emax | item: CC(=O)c1c(C)c2cnc(Nc3ccc(N4CCNCC4)cn3)nc2n(C2CCCC2)c1=O [Palbociclib] + CC1(C)CCC(CN2CCN(c3ccc(C(=O)NS(=O)(=O)c4ccc(NCC5CCOCC5)c([N+](=O)[O-])c4)c(Oc4cnc5[nH]ccc5c4)c3)CC2)=C(c2ccc(Cl)cc2)C1 [Venetoclax] (first compound max 10 µM, 7x7, partner max 1 µM)
(A) 0.176

(Q) Recorded combination Emax of Cc1cc2ncnn2cc1Nc1ncc2c(n1)n(C1CCOCC1)c(=O)n2C [AZD7648] + C[C@@H]1COCCN1C2=NC(=NC(=C2)C3(CC3)[S@](=N)(=O)C)C4=C5C=CNC5=NC=C4 [AZD6738] (first compound max 10 µM, 7x7, partner max 10 µM) , please.
(A) 0.84

(Q) # combination Emax lookup, item Cc1c2c(nn1C)CSCc1cc(n(C)n1)CSc1cc(c3ccccc3c1)OCCCc1c(C(=O)O)n(C)c3c-2c(Cl)ccc13 [AZD5991] + CN(C)CCCOc1ccc(-c2ccc3ncc4c(c3c2)n(C2CCOCC2)c(=O)n4C)cn1 [AZD0156] (first compound max 1 µM, 7x7, partner max 1 µM)
(A) 0.286

(Q) Name the reported combination Emax value associated with the molecule COc1nnc2ccc(N3CCC(c4ccc(OCCN5CCN(C)C(=O)[C@H]5C)cc4)CC3)nn12 [AZD5153] + C[C@@H]1COCCN1C2=NC(=NC(=C2)C3(CC3)[S@](=N)(=O)C)C4=C5C=CNC5=NC=C4 [AZD6738] (first compound max 1 µM, 7x7, partner max 10 µM)
(A) 0.87

(Q) Endpoint output: combination Emax of Cn1cnc2c(F)c(Nc3ccc(Br)cc3Cl)c(C(=O)NOCCO)cc21 [Selumetinib] + C=CCn1c(=O)c2cnc(Nc3ccc(N4CCN(C)CC4)cc3)nc2n1-c1cccc(C(C)(C)O)n1 [AZD1775] (first compound max 10 µM, partner max 1 µM) . Value?
(A) 0.87

====

tested on: MPP-89 (Mesothelioma); experiment: Bliss excess, mean over the matrix (fraction); higher = more synergy;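 further: after 72 h of two-drug dosing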
Use class 1 when the recorded Bliss excess is no lower than -0.02; use class 0 when it is lower.

(Q) Quick check, Bliss excess >= -0.02? CN(CCO)CC[C@H](CSc1ccccc1)Nc1ccc(S(=O)(=O)NC(=O)c2ccc(N3CCC([C@@H](O)c4ccccc4-c4ccc(Cl)cc4)CC3)cc2)cc1S(=O)(=O)C(F)(F)F [AZD4320] + CS(=O)(=O)CCNCc1ccc(-c2ccc3ncnc(Nc4ccc(OCc5cccc(F)c5)c(Cl)c4)c3c2)o1 [Lapatinib] (first compound max 1 µM, 7x7, partner max 10 µM)
(A) class 1

(Q) Evaluate CC1(C)CCC(CN2CCN(c3ccc(C(=O)NS(=O)(=O)c4ccc(NCC5CCOCC5)c([N+](=O)[O-])c4)c(Oc4cnc5[nH]ccc5c4)c3)CC2)=C(c2ccc(Cl)cc2)C1 [Venetoclax] + Cn1cnc2c(F)c(Nc3ccc(Br)cc3Cl)c(C(=O)NOCCO)cc21 [Selumetinib] (first compound max 1 µM, 7x7, partner max 3 µM) : Bliss excess at minimum -0.02?
(A) class 0

(Q) Answer whether Bliss excess of Cc1cc2ncnn2cc1Nc1ncc2c(n1)n(C1CCOCC1)c(=O)n2C [AZD7648] + O=C(c1cc(Cc2n[nH]c(=O)c3ccccc23)ccc1F)N1CCN(C(=O)C2CC2)CC1 [Olaparib] (first compound max 10 µM, 7x7, partner max 10 µM) is greater than or equal to -0.02.
(A) class 1

(Q) Reported Bliss excess at or above -0.02? C=CCn1c(=O)c2cnc(Nc3ccc(N4CCN(C)CC4)cc3)nc2n1-c1cccc(C(C)(C)O)n1 [AZD1775] + O=C(c1cc(Cc2n[nH]c(=O)c3ccccc23)ccc1F)N1CCN(C(=O)C2CC2)CC1 [Olaparib] (first compound max 1 µM, partner max 10 µM)
(A) class 1

(Q) Is the recorded value of Bliss excess equal to or greater than -0.02 for this molecule? CN(CCO)CC[C@H](CSc1ccccc1)Nc1ccc(S(=O)(=O)NC(=O)c2ccc(N3CCC([C@@H](O)c4ccccc4-c4ccc(Cl)cc4)CC3)cc2)cc1S(=O)(=O)C(F)(F)F [AZD4320] + C1CN(CCC1(C(=O)N[C@@H](CCO)C2=CC=C(C=C2)Cl)N)C3=NC=NC4=C3C=CN4 [Capivasertib] (first compound max 1 µM, 7x7, partner max 3 µM)
(A) class 0

(Q) Hi, just wondering whether C=CCn1c(=O)c2cnc(Nc3ccc(N4CCN(C)CC4)cc3)nc2n1-c1cccc(C(C)(C)O)n1 [AZD1775] + Nc1ccn([C@@H]2O[C@H](CO)[C@@H](O)C2(F)F)c(=O)n1 [Gemcitabine] (first compound max 1 µM, partner max 0.3 µM) shows Bliss excess of -0.02 or higher.
(A) class 1

(Q) Given Cc1cc2ncnn2cc1Nc1ncc2c(n1)n(C1CCOCC1)c(=O)n2C [AZD7648] + C=CCn1c(=O)c2cnc(Nc3ccc(N4CCN(C)CC4)cc3)nc2n1-c1cccc(C(C)(C)O)n1 [AZD1775] (first compound max 10 µM, partner max 1 µM) , state whether its Bliss excess is at least -0.02.
(A) class 1

(Q) Say whether CC1(C)CCC(CN2CCN(c3ccc(C(=O)NS(=O)(=O)c4ccc(NCC5CCOCC5)c([N+](=O)[O-])c4)c(Oc4cnc5[nH]ccc5c4)c3)CC2)=C(c2ccc(Cl)cc2)C1 [Venetoclax] + C1CN(CCC1(C(=O)N[C@@H](CCO)C2=CC=C(C=C2)Cl)N)C3=NC=NC4=C3C=CN4 [Capivasertib] (first compound max 1 µM, 7x7, partner max 3 µM) shows Bliss excess of -0.02 or more.
(A) class 0

(Q) Quick check: does COc1cccc2c1C(=O)c1c(O)c3c(c(O)c1C2=O)C[C@@](O)(C(=O)CO)C[C@@H]3O[C@H]1C[C@H](N)[C@H](O)[C@H](C)O1 [Doxorubicin] + Cc1cc2ncnn2cc1Nc1ncc2c(n1)n(C1CCOCC1)c(=O)n2C [AZD7648] (first compound max 1 µM, 7x7, partner max 10 µM) have Bliss excess greater than or equal to -0.02?
(A) class 1

(Q) Could you verify whether the entry CCN(CCO)CCCOc1ccc2c(Nc3cc(CC(=O)Nc4cccc(F)c4)[nH]n3)ncnc2c1 [AZD2811] + C=CCn1c(=O)c2cnc(Nc3ccc(N4CCN(C)CC4)cc3)nc2n1-c1cccc(C(C)(C)O)n1 [AZD1775] (first compound max 1 µM, partner max 1 µM) shows Bliss excess of no less than -0.02?
(A) class 1

(Q) Given NC1(C(=O)N[C@@H](CCO)c2ccc(Cl)cc2)CCN(c2ncnc3[nH]ccc23)CC1 [Capivasertib] + CCN(CCO)CCCOc1ccc2c(Nc3cc(CC(=O)Nc4cccc(F)c4)[nH]n3)ncnc2c1 [AZD2811] (first compound max 10 µM, 7x7, partner max 1 µM) , state whether its Bliss excess is at least -0.02.
(A) class 0

(Q) API: above_or_equal(metric=Bliss excess, cutoff=-0.02) for item C[C@@H](Oc1cc(-c2cnn(C3CCNCC3)c2)cnc1N)c1c(Cl)ccc(F)c1Cl [Crizotinib] + CC1=C(C(=CC=C1)Cl)NC(=O)C2=CN=C(S2)NC3=CC(=NC(=N3)C)N4CCN(CC4)CCO [Dasatinib] (first compound max 10 µM, 7x7, partner max 2 µM)
(A) class 1

(Q) Does the molecule COc1cccc(OCCCN)c1-c1cc(Nc2cnc(C#N)cn2)n[nH]1 [Prexasertib] + C[C@@H]1COCCN1C2=NC(=NC(=C2)C3(CC3)[S@](=N)(=O)C)C4=C5C=CNC5=NC=C4 [AZD6738] (first compound max 1 µM, 7x7, partner max 10 µM) have recorded Bliss excess that is -0.02 or more?
(A) class 0

Sourced from the supplement of paper PMC11061612
